- System: PIK4CB
- Construct: gene PI4KB
- ASSAY CONTEXT: concentration: 1 μM, replicates: in singlicate; n = 1;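 also: KINOMEscan kinase panel screen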
A collection of compounds and their measured %Inh
The reply should be a number in %, with the unit left off.

Cl.Oc1ccc(-c2nc(-c3ccccc3)[nH]c2-c2ccncc2)cc1 = 0
Fc1cc(Cl)ccc1Nc1ccnc2cc(-c3ccc(CN4CCCCC4)o3)ccc12 = 0

Please fill in: %Inh reported for Cc1cc(-c2ccc3c(c2)CC[C@@H](N[C@@H](C)c2ccccc2)C3)cnc1N.Cl = 1

---

%Inh values for the compounds below.
- Tested on: MAP3K3
- ASSAY CONTEXT: concentration: 1 μM, replicates: in singlicate; n = 1
Write down the numeric answer in % and omit the unit.

COc1cccc(NC(=O)NC2CCN(c3ccnc(Nc4ccc(F)cc4)n3)C2)c1 (stereo not drawn) = 0

Documented %Inh of Fc1cc(Cl)ccc1Nc1ccnc2cc(I)ccc12 : 0

Input NC(=O)c1nnc2ccccc2c1N . Output %Inh: 34

Summary for this compound, Cc1cc(NCC(c2ccccc2)c2ccccc2)nc(NCc2ccc(C(F)(F)F)cc2)n1 : %Inh is 0

Recorded %Inh (compound Cc1cccc(-c2nc(Nc3cccc(C(N)=O)c3)c3ccccc3n2)n1 ): 26

// %Inh lookup, compound = O=C(Nc1n[nH]c2nc(-c3nccs3)c(Br)cc12)C1CC1 , result: 0

In plain terms, COc1cc2nccc(Nc3ccc(NC(=O)c4ccc(C)cc4)c(O)c3)c2cc1OC.Cl has a documented %Inh of 0

Reported %Inh ( CSc1nn2c(=O)cc(N3CCOCC3)nc2n1Cc1cccc(C(F)(F)F)c1C ) = 0

What the record says about Fc1cc(Cl)ccc1Nc1ccnc2cc(-c3ccc(CN4CCCCC4)o3)ccc12 : %Inh is 0

Source of measurements: paper PMC5540273
